List of Ki tested on Histamine H1 receptor (Homo sapiens).
Sequence (P35367 whole entry): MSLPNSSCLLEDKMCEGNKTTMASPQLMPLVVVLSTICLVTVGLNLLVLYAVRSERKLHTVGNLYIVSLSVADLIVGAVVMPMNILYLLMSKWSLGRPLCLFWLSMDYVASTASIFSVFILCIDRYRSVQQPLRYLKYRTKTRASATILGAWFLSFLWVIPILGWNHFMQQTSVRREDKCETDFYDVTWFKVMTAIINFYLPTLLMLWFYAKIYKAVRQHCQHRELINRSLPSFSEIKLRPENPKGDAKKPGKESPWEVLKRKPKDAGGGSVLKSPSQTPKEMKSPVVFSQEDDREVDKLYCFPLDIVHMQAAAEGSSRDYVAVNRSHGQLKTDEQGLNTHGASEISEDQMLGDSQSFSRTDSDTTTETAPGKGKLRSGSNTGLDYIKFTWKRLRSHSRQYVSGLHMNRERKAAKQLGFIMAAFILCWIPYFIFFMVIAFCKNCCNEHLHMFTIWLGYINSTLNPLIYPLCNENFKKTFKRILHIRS
The answer is to be given in nM; state only the numeric part.

| compound.string | Ki, nM |
| --- | --- |
| COc1ccccc1N1CCN(Cc2cc(CN(C)C)c3cccccc2-3)CC1 | 2600 |

Inquiry: Record COc1ccccc1N1CCN(Cc2cc(CN3CCN(c4ccccc4OC)CC3)c3cccccc2-3)CC1 : what is its Ki with Histamine H1 receptor (Homo sapiens)?
Reply text: 1000

###

Target: D(1A) dopamine receptor (Sus scrofa, UniProt P50130)
Sequence (P50130 whole entry): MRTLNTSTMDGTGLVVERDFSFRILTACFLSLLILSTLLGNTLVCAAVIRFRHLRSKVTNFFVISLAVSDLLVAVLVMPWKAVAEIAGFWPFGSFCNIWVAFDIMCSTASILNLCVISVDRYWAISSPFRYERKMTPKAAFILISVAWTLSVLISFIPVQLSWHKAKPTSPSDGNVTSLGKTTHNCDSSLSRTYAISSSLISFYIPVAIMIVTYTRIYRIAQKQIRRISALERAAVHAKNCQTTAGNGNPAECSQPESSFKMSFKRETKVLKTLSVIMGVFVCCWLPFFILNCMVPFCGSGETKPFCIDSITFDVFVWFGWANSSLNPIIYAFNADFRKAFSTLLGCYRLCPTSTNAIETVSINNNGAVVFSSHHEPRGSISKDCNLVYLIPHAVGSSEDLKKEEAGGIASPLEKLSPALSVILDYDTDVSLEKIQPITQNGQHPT
Assay: Displacement of [3H]SCH23390 from dopamine D1 receptor in porcine striatal membranes after 60 mins by scintillation counting analysis
quantity.kind: pKi
pKi here: minus log base 10 of the concentration, concentration in moles per litre.

Examples from the recorded data:
| compound.string | assay.result |
| --- | --- |
| COc1ccccc1N1CCN(Cc2cc(C#Cc3ccccc3)c3cccccc2-3)CC1 | 5.89 |
| COc1ccccc1N1CCN(Cc2cc(C#N)c3cccccc2-3)CC1 | 6.39 |
| COc1ccccc1N1CCN(Cc2cc(CN(C)C)c3cccccc2-3)CC1 | 5.35 |
| C#Cc1cc(CN2CCN(c3ccccc3OC)CC2)c2cccccc1-2 | 5.19 |
| COc1ccccc1N1CCN(Cc2cc(CN3CCN(c4ccccc4OC)CC3)c3cccccc2-3)CC1 | 6.13 |
| COc1ccccc1N1CCN(Cc2cc(CN3CCCCC3)c3cccccc2-3)CC1 | 5.39 |
| COc1ccccc1N1CCN(Cc2cc(CN3CCOCC3)c3cccccc2-3)CC1 | 5.30 |
| COc1ccccc1N1CCN(Cc2cc(CN3CCN(C)CC3)c3cccccc2-3)CC1 | 5.19 |
| COc1ccccc1N1CCN(Cc2ccc3cccccc2-3)CC1 | 6.30 |
| CCCC#Cc1cc(CN2CCN(c3ccccc3OC)CC2)c2cccccc1-2 | 5.85 |

Inquiry: Give D(1A) dopamine receptor (Sus scrofa, UniProt P50130) pKi for COc1ccccc1N1CCN(Cc2cc(CO)c3cccccc2-3)CC1
Reply text: 6.07
